- experimental.protocol: yeast display, Sf9 membrane polyspecificity reagent, FACS + sequencing; frameworks hold sequencing errors
outcome.measure: polyreactivity (PSR sort gate)

Known results for sequences:
[
  {
    "sequence.chain": "QVQLVESGGGLVQAGGSLRLSCAASGSTFSPNAMGWYRQAPGKERELVAAITGGGSTYADSVKGRFTISRDNAKNTVYLQMNSLKPEDTAVYYCNRDYRSDLGYADQSWTDQYDYWGQGTQVTVSS",
    "polyreactivity (PSR sort gate)": "low polyreactivity"
  },
  {
    "sequence.chain": "QVQLVESGGGLVQAGGSLRLSCAASGSIFNYYAMGWYRQAPGKERELVAGITTSGGSTYYADSVKGRFTISRDNAKNTVYLQMNSLKPEDTAVYYWAAYDYISSTYFLDDYWGQGTQVTVSS",
    "polyreactivity (PSR sort gate)": "low polyreactivity"
  },
  {
    "sequence.chain": "QVQLVESGGGLVQAGGSLRLSCAASGLTFKKYTIGWYRQAPGKETQLVAVITSGGSTYYADSVKGRFTISRDNAKNTVYLQMNSVKPEDTAVYYGAVKYPELRSWGNYYWGQGTQVTVSS",
    "polyreactivity (PSR sort gate)": "high polyreactivity"
  },
  {
    "sequence.chain": "QVQLVESGGGLVQAGGSLRLSCAPSGFIFYANDMGWYRQAPGKERELVARITNSGGSTYYADSVKGRFTISRDNAKNTVYLQMNSLKPEDTAVYYCAAWRRFNYSRRYYYWGQGTQVTLSS",
    "polyreactivity (PSR sort gate)": "high polyreactivity"
  },
  {
    "sequence.chain": "QVQLVESGGGLVQAGGSLRLSCAASGSIFHPNAMGWYRQAPGKERELVAAITKSGGSTYYADSVKGRFTISRDNAKNTVYLQMNSLKPEDTAVYYCNALRYRRVGTLGYDYWGQGTQVTVSS",
    "polyreactivity (PSR sort gate)": "high polyreactivity"
  },
  {
    "sequence.chain": "QVQLVESGGGLVQAGGRLRLSCAASGFTFRGYAMGWYRQAPGKERELVAAITKRGGSTYYADSVKGRFTISRDNAKNTVYLQMNSLKPEDTAVYYCNKYAGQTTYDYWGQGTQVTVSS",
    "polyreactivity (PSR sort gate)": "high polyreactivity"
  }
]

Any idea what polyreactivity (PSR sort gate) was measured for QVQLVESGRGLVHAGGSHRISCAASGRTFYYYAMGWYRQAPGKERELVAAITRGGSTNYADSVKGRFTISRDNAKITVYLQMNSLKPEDTAVYYCAQPWFYQNRGYDYWGQGTQVTVSS ?
low polyreactivity

Queued: QVQLVESGGGLVQAGGSLRLSCAASGSNIGWYAMGSYRQAPGKERELVAAISSSDGSTYYADSVKGRFTISRDNAKNTVYLQMNSLKPEDTAVYYCATDSDFTYAQYDYWGQGTQVTVSS
low polyreactivity

###

- experimental.protocol: yeast display, Sf9 membrane polyspecificity reagent, FACS + sequencing; frameworks hold sequencing errors
outcome.measure: polyreactivity (PSR sort gate)

[
  {
    "sequence.chain": "QVQLQESGGGLVQEGGSLRLTCAASGNISPPADMGWYRQAPGKERELVASIGTGGTTNYADSVKGRFTISRDNAKNTVYLQMNSLKPDDTAVYYCAAVRYEYNPYDYWGQGTQVSVSS",
    "polyreactivity (PSR sort gate)": "low polyreactivity"
  },
  {
    "sequence.chain": "QVQLVESGGGLVQEGGSLRLSCAASESNFPRNAMGLYRKEPGKEREIVAAISSAGSTYYADSVKWRFTISRDNAKNTVYLQMNSLKQEDTAVYYCAARLYWPLIVVDLYGYDYWGQGNQVTVSS",
    "polyreactivity (PSR sort gate)": "low polyreactivity"
  },
  {
    "sequence.chain": "QVQLVESGGGLVQAGGRLRLTCAASGYIFDVNAMGWYRHAPGKERELVAAISQRGTRTYYADSVKGRFTISRDNAKNSVYLQMNSLKPEDTAVYFCNRGGWRQYDSWVQGTQVTVSS",
    "polyreactivity (PSR sort gate)": "high polyreactivity"
  },
  {
    "sequence.chain": "QVQLVESGGGLVQAGGSLRLSCAASARTFSYYAMGLYRQEPGKERELVAAIRRSSGTTYYADSVKGRFTISSDNAKYSVYLQMNSLKPEDTADYYCNARSRRASIKRDYWGQGTQVSVSS",
    "polyreactivity (PSR sort gate)": "high polyreactivity"
  },
  {
    "sequence.chain": "QVQLVESGGGLVQAGGSLRLSCAASGRTFRRYVMGWYRQAPGKERELGAAITGSGGSTYYADSVKGRFTISRDNAKNTVYLQMNSLKPEDTAVYYCAADGICFYRSYGYDYWGQGTQVNVSS",
    "polyreactivity (PSR sort gate)": "high polyreactivity"
  },
  {
    "sequence.chain": "QVQLVESGGGLVQAGGSLRLSCAASGRIFNPYAMGWYRQAPGKERELVAAISWSGSTTYYADSVKGRFTISRDNAKNTVYLQMNSLKPEDTAVYYCAAEVVFFGWNYDYWGQGTQVTVSS",
    "polyreactivity (PSR sort gate)": "high polyreactivity"
  },
  {
    "sequence.chain": "QVQLVESGGGLVQAGGSLRLTCAASGSIFVSYARGWYREAPGKERELVAAITSAGTPYYADSVKGRFTISRDNAKNTVYLQMNSLKPDDTAVYYCNTDASLKRTRVSPETEYGYWGQGTQVTVSS",
    "polyreactivity (PSR sort gate)": "low polyreactivity"
  },
  {
    "sequence.chain": "QVQLVESGGGLVQAGGSLRLSCAAPGSTFVYYAMGWFRQAPGKEGELVAAISRSGGHTYYADSVKGRFTISRDKAKKTVYLQMNSLKPEETAVYYCAARSYGVQYYYWGQRTQVTVSS",
    "polyreactivity (PSR sort gate)": "high polyreactivity"
  },
  {
    "sequence.chain": "QVQLVESGGGLVQAGGSLSLSCAASGRIFAGYAMGWYRQAPGKERELVAVISSRGGRTYYADSVKGRFTISRDNAKNTVYLQMNSLKPEDTAVYYCNRVFSYQYKRDYWGQGTQVTVSS",
    "polyreactivity (PSR sort gate)": "high polyreactivity"
  },
  {
    "sequence.chain": "QVQLVESGGGLVQAGGSLRLSCAASGSIFRYYVMGWYRQAPGKERELVASITGSGGSTYYADSLKGRFTISRDNAKNTVYLQMNSLKPEDTAVYYCAASYRMRYGYWGQGTQVTVSS",
    "polyreactivity (PSR sort gate)": "high polyreactivity"
  }
]

Any idea what polyreactivity (PSR sort gate) was measured for QVQLVESGGGLVQAGGSLRLSCAASGRILVVNAMGWYRQAPRKERELVAAISTTGGRTYYADSVKGRFTISRDNAKNTVYLQMKSLKPEDTAVYYCSKDDGRFGRTHEHDYWGHGTQVTVSS ?
high polyreactivity

Queued: QVQLVESGGCLVQAGGSLRLTCAASGRIFRGNVMGWYRQAPGKERELVAAISGRGGNTYYADSVKGRFTISRDNAKNTVYLQMNSLKPEDTAVYYCAATRKDDYQYGYWGQGTQVTVSS
high polyreactivity

Queued: QVQLVESGGGLVQAGGSLRLSCAASGSIFYTNAMGWYRQAPGKERELVAAITWSGGRTYYADSVKGRFTISRDIAKNTVYLQMNSLKPEDTAVYYCNREGWHYGPYGYWGQGTQVTVSS
low polyreactivity

Queued: QVQLVESGGGLVQAGGSLRLSCAASGRISPKNAMGWYRQAPGKERELVATIRKIGGRTYYADSVKGRFTISRDNAKNTVYLQMNSLKPEDTAVYYCATDFAQSYYPDRFDYWGQGTQVTVSS
low polyreactivity

Queued: QVQRVESGGGLVQAGGSLRLRCAASGFIFWLYAMGWYRQAPAKERELVAAISNGGSTNYADSVKGRFTISRDNAKNTVYLQMNSLKPEDTAVYYCAAKFPRRYYWYDYWGQGTQVTVSS
high polyreactivity

Queued: QVQLVESGGGLVQAGGSLRISCAASGRTFYINAMGWYRQAPGKVWELVASISRSGGGTYYADSVKGRFTISRDNAKNNVYLQMNCLKPEDTAVYYCAAYSWSYSGYNFWGQGTQVTVSS
high polyreactivity
